Hey, just so you know, these numbers are from PubChem BioAssay (NCI).

procedure_details: NCI Yeast Anticancer Drug Screen. Data for the cln2 rad14 strain (AID 165);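 note: 0% = growth equal to vehicle treated cultures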
measurement_setup: S. cerevisiae cln2 rad14 strain, at 50.0 µM (retest, dose inferred, filed as 5.0)
This is part of a sample that, as a whole, favours compounds with a hit. Of some 79,000 tested, about 15% had one in any assay. Active and inactive are the calls of the source. Cut-off read from the data, not from the text of the source: active = growth inhibition above about 70%; inactive = the rest.
Classes used: label 1 for active, label 0 for inactive

> print(dat)
                                   molecule  assigned.label
1  CCCCCN1C(=O)C2C(C1=O)C1(Cl)C(Cl)=C(Cl)C2(Cl)C1(Cl)Cl (stereo unspecified)         label 1
2          Clc1cc[c]([Tl][c]2ccc(Cl)cc2)cc1         label 1
3  S=P(Nc1ccc(Cl)cc1)(Nc1ccc(Cl)cc1)c1ccccc1         label 1
4    COc1ccc([Se][Se]c2ccc(OC)cc2OC)c(OC)c1         label 0
5        O=C1[O][Hg][c]2c1cccc2[N+](=O)[O-]         label 1
6  CCC[CH2][Sn]1([CH2]CCC)[O]C(=O)c2cccc(OC)c2[O]1         label 1
